// provenance: patent US20220009920A1

Recorded below: IC50, system BTK (Homo sapiens, UniProt Q06187).
ENDPOINT: IC50

>>> reported("CC#CC(=O)N[C@H]1CCCC(c2c(F)cc(C(N)=O)c3[nH]c4c(c23)CCC4)C1 (single isomer, unassigned)")
"< 10 nM"
>>> reported("CC#CC(=O)N[C@H]1CCCN(c2c(F)cc(C(N)=O)c3[nH]c4c(c23)CCN(C)CC4)C1")
"< 10 nM"
>>> reported("C=CC(=O)N1CCC=C(c2ccc(C(N)=O)c3[nH]c4c(c23)CC2(CC4)CC2)C1")
"10 to 100 nM"
>>> reported("C=CC(=O)N1CCc2c(cccc2-c2c(C)nc(C(N)=O)c3[nH]c4c(c23)CCCC4)C1 (single isomer, unassigned)")
"< 10 nM"
>>> reported("C=CC(=O)N1CCC[C@@H](c2c(F)cc(C(N)=O)c3[nH]c4c(c23)CC2(CC4)CC2)C1")
"< 10 nM"
>>> reported("C=CC(=O)N1CCc2c(cccc2-c2c(F)cc(C(N)=O)c3[nH]c4c(c23)CS(=O)(=O)CC4)C1 (single isomer, unassigned)")
"< 10 nM"
>>> reported("C=CC(=O)N1CC[C@@H]2CCN(c3c(F)cc(C(N)=O)c4[nH]c5c(c34)CCCCC5)C[C@@H]21")
"≥ 100 nM"
>>> reported("C=CC(=O)N1CCCC(c2c(F)cc(C(N)=O)c3[nH]c4c(c23)CCCCC4)C1 (racemic) [Compound 5-5]")
"10 to 100 nM"
>>> reported("CC#CC(=O)N[C@H]1CCC=C(c2c(F)cc(C(N)=O)c3[nH]c4c(c23)CCC4)C1")
"< 10 nM"
>>> reported("C=CC(=O)N1CCc2c(cccc2-c2cnc(C(N)=O)c3[nH]c4c(c23)CC(F)(F)CC4)C1")
"10 to 100 nM"
>>> reported("C=CC(=O)N1CCC=C(c2ccc(C(N)=O)c3[nH]c4c(c23)C[Si](C)(C)CC4)C1")
"< 10 nM"
>>> reported("CC#CC(=O)N[C@H]1CCCN(c2c(F)cc(C(N)=O)c3[nH]c4c(c23)CCCCC4)C1")
"10 to 100 nM"
>>> reported("C=CC(=O)N1CCc2c(-c3c(F)cc(C(N)=O)c4[nH]c5c(c34)CC3(CC5)CC3)cccc2[C@@H]1C (atropisomer, axis not shown)")
"≥ 100 nM"
>>> reported("C=CC(=O)N1CCc2c(cccc2-c2ccc(C(N)=O)c3[nH]c4c(c23)CC2(CC4)CC2)C1")
"10 to 100 nM"
